Tested on: CYP1B1, CYP1A1, CYP1A2
experiment-notes: in vitro
condition-description: human
pKi: −log10 of the molar value.
readout-kind: pKi

get_value(item= CC(C)C(=O)Nc1ccc([N+](=O)[O-])c(C(F)(F)F)c1 [Flutamide] , readout=pKi) returns 4.99 to 6.00

###

tested-on: UniProtKB Q16678
Sequence (Q16678 1-543): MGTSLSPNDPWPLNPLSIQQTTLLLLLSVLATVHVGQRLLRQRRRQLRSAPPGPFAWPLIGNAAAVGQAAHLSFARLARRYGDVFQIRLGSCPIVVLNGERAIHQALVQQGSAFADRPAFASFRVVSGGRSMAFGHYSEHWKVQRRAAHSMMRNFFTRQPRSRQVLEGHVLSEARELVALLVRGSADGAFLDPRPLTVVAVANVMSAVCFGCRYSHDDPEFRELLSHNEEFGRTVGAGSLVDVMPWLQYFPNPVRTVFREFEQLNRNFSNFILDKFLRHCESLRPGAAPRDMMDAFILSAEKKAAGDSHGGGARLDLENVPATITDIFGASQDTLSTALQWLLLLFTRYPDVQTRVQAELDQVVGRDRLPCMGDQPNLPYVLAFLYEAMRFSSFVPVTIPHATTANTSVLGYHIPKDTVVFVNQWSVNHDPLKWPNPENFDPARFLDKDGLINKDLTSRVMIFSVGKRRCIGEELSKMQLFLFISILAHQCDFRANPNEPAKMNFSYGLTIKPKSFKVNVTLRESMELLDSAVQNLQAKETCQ
experiment-notes: in vitro
readout-kind: Inhibition Type

CC(=O)O[C@@]12CO[C@@H]1C[C@H](O)[C@@]1(C)C(=O)[C@H](O)C3=C(C)[C@@H](OC(=O)[C@H](O)[C@@H](NC(=O)OC(C)(C)C)c4ccccc4)C[C@@](O)([C@@H](OC(=O)c4ccccc4)[C@H]21)C3(C)C [Docetaxel] ... competitive
CC(C)C(=O)Nc1ccc([N+](=O)[O-])c(C(F)(F)F)c1 [Flutamide] ... competitive
C[C@]12CC[C@H]3[C@@H](CCC4=CC(=O)CC[C@@]43C)[C@@H]1CC[C@@H]2O [Testosterone] ... competitive
C[C@]12CC[C@@H]3c4ccc(O)cc4CC[C@H]3[C@@H]1CC[C@@H]2O [Estradiol] ... competitive
